melting point values for the compounds below.
Quantity: melting point

>>> print(df.to_string())
                                query_smiles  reported_value
 0  CC1(C(=O)c2c[nH]c3ncc(-c4cccc(N5CCCC5)c4)nc23)CCCCC1   180 to 182 °C
 1  Brc1ccc(SC2CCN(C(c3ccccc3)(c3ccccc3)c3ccccc3)CC2)cc1   174 to 175 °C
 2      O=C(CCc1cnoc1-c1ccc(Cl)cc1)Nc1cccnc1   197 to 198 °C
 3            O=c1[nH]c2cc(Cl)c(Cl)cc2n1CCCO          175 °C
 4                         CN1Sc2sccc2C=C1CO   128 to 130 °C
 5             C[C@@]1(C(=O)O)Oc2ccccc2NC1=O   168 to 171 °C
 6     CC1(C)CCc2c(ccc3c2C(=O)C(Cl)=CC3=O)O1   140 to 142 °C
 7   N#Cc1ccc(-c2cc(-c3ccc(C#N)cc3Cl)on2)cc1   260 to 262 °C
 8    Cc1cc(C)nc(NC(=O)Cc2c(Cl)sc3ccccc23)c1   123 to 124 °C
 9                     CC(=O)Nc1ccccc1C(C)=O    99 to 100 °C
10            COc1cc2c(cc1OC)OCCC(C(=O)O)=C2   209 to 210 °C

###

melting point values for the molecules below.
Quantity: melting point

                                    molecule       quantity   reported_value
 0        CCCc1ccc2oc(Cc3ccc(O)cc3)c(C)c2c1O  melting point    117 to 120 °C
 1  COC(=O)/C=C(C)/C=C/C1(c2cc3c(cc2C)C(C)(C)CCC3(C)C)CC=CS1 (stereo unspecified)  melting point    152 to 153 °C
 2     OC(CCCl)c1ccccc1 (stereo unspecified)  melting point      56 to 57 °C
 3  Nc1nc2ccccc2c2c1ncn2CCOCCCc1ccccc1C(=O)O  melting point    186 to 188 °C
 4    C=CCn1c(C)c(C)c2cnnc(OCc3cccc(F)c3)c21  melting point      85 to 86 °C
 5  CCOC(=O)c1c(S)nc2cc(OC)c(OC)cc2c1-c1ccc(OC)c(OC)c1  melting point    265 to 266 °C
 6  CN1C(=O)C(c2ccc(OC(F)(F)F)c(F)c2)(c2ccc(F)c(-c3cncc(F)c3)c2)N=C1N (stereo unspecified)  melting point      91 to 97 °C
 7  CCOP(=O)(OCC)c1ccc(/C=C(\C)c2ccc3c(c2)C(C)(C)CCC3(C)C)cc1  melting point  72.5 to 73.5 °C
 8  COc1ccc2c3c1OC1C(=O)C(COS(=O)(=O)c4ccc(C)cc4)(COS(=O)(=O)c4ccc(C)cc4)CC4C(C2)N(C)CCC314 (stereo unspecified)  melting point    150 to 153 °C
 9              Cc1cc(Oc2ccc(Cl)nn2)c(C)cc1N  melting point    138 to 140 °C
10  O=C1c2cccc(F)c2C(=O)N1CCN1CCC(c2noc3cc(F)ccc23)CC1  melting point    142 to 143 °C
11                CCOC(=O)c1cc(C#N)c(C)nc1NC  melting point    103 to 105 °C
12               COc1ccccc1C(=O)Nc1ccc(F)cc1  melting point  79.6 to 80.2 °C
13  Cc1ccc(-c2nc(COc3ccc(CCCCn4ccnc4)cc3)cs2)s1  melting point      81 to 82 °C
14   CCOC(=O)c1[nH]c2c(C)ccc(C)c2c1-c1ccccc1  melting point    107 to 108 °C
15  CC(C)Nc1nc(N)nc(-c2ccccc2)c1-c1ccc(=O)n(C(C)C)n1  melting point    234 to 236 °C
16  Clc1ccc2nc(NCC3CCN(CC4COc5ccccc5O4)CC3)sc2c1 (stereo unspecified)  melting point           156 °C
17  CS(=O)c1nc2ccc(C(F)(F)F)cc2[nH]1 (stereo unspecified)  melting point           135 °C
18              CN1Cc2c(Br)ncn2-c2ccccc2C1=O  melting point    196 to 198 °C
19  O=C(O)COc1cccc2c(CNS(=O)(=O)Cc3ccccc3)coc12  melting point    191 to 192 °C
20  COC(=O)c1ccc(CNC(=O)c2[nH]c(-c3ccoc3)cc2-c2ccc(O)cc2)cc1  melting point    223 to 224 °C
